Tested on: KM12
Test: NCI tumour cell line growth inhibition, 48 h
The source made the active and inactive calls. Cut-off read from the data, not from the text of the source: active = GI50 up to about 1.1 µM and inactive = higher.
Measured GI50 accompanies every entry in the list below.

                                   compound  recorded_measurement
0  Cc1ccc2c(c1)-c1c3c(nn1-c1ccccc1)-c1ccccc1SC3O2 (stereo unspecified)   > 100 µM (inactive)
1   NC1CC2C3CCC2C1C3=O (stereo unspecified)   > 100 µM (inactive)
2  CCOC(=O)/C(C(=O)Nc1cccc(C(F)(F)F)c1)=C(/N)N1CCOCC1   > 100 µM (inactive)

[Q] Entry under review: COc1cc(C)c2c(c1)CN1CN2Cc2cc(OC)cc(C)c21 . Reported GI50?
[A] 58.2 µM (inactive)

[Q] Entry under review: NC(=O)OCc1c(-c2ccccc2)nn(-c2ccccc2)c1COC(N)=O . Reported GI50?
[A] > 100 µM (inactive)

[Q] Entry under review: CCN(CC)CC(=O)N1CCc2c([nH]c3ccccc23)C1c1cccnc1 (stereo unspecified) . Reported GI50?
[A] > 100 µM (inactive)

[Q] Entry under review: CCOc1ccc(OCC)c([P+](c2ccccc2)(c2ccccc2)c2ccccc2)c1 . Reported GI50?
[A] 0.178 µM (active)

[Q] Entry under review: O=C1CCC2(c3ccccc3)Nc3ncccc3N12 (stereo unspecified) . Reported GI50?
[A] > 100 µM (inactive)

[Q] Entry under review: Cc1occc1C(=S)Nc1ccc(Cl)c(C(=O)OC(C(C)C)C(C)C)c1 . Reported GI50?
[A] 12.5 µM (inactive)

[Q] Entry under review: O=c1[nH]c(=O)n(COCc2ccccc2)cc1Nc1ccc(Br)cc1 . Reported GI50?
[A] > 100 µM (inactive)

[Q] Entry under review: CCOC(=O)CNC(=O)CNC(=O)CNC(=O)CNNc1c(OCc2ccccc2)c(=O)c1=O . Reported GI50?
[A] > 100 µM (inactive)

Numbers sourced from ChEMBL document CHEMBL1201862.
